Measured AC50 on Cytochrome P450 2C9 (Homo sapiens) follows.
Sequence (P11712 whole entry): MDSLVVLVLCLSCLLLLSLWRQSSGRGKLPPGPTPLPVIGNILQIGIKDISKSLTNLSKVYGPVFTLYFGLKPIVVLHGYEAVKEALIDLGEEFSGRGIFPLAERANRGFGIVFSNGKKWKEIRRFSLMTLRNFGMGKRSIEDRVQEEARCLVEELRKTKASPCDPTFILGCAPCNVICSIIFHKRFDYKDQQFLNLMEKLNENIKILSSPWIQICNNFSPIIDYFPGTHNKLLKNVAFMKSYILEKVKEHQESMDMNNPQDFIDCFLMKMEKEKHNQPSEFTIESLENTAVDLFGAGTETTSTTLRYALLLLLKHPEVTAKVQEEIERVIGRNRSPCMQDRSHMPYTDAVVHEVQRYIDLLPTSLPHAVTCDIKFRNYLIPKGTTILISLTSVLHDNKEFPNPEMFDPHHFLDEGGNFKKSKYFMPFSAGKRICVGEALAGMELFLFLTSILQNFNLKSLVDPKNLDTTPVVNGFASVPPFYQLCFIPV

CCC(CC)c1nnc(NC(=O)COc2ccc3c(C)cc(=O)oc3c2)s1
7.08 µM (inconclusive)
COc1ccc(Oc2ncc3ncc(=O)n(C4CC4)c3n2)cc1
25.1 µM (inconclusive)
c1cncc(CNc2nc(-c3ccc4c(c3)OCO4)nc3ccccc23)c1
0.398 µM (inconclusive)
COC(=O)N1CCC[C@@]2(CCN(C(c3ccccc3)c3ccccc3)C2)C1
25.1 µM (inconclusive)
Cc1ccc2[nH]c3c(N4CCc5ccccc5C4)ncnc3c2c1
2.24 µM (inconclusive)

Lab request: please report AC50 under test system Cytochrome P450 2C9 (Homo sapiens) for COc1ccc(Cc2nnc(NC(=O)c3cccc([N+](=O)[O-])c3C)s2)cc1
0.794 µM (inconclusive)

Lab request: please report AC50 under test system Cytochrome P450 2C9 (Homo sapiens) for O=C(CCCCCN1C(=O)c2ccccc2C1=O)NCc1ccccn1
31.6 µM (inconclusive)

Lab request: please report AC50 under test system Cytochrome P450 2C9 (Homo sapiens) for COc1ccc(-n2nc3cc(C)c(NC(=S)NC(=O)c4ccccc4C)cc3n2)cc1
6.31 µM (inconclusive)

Lab request: please report AC50 under test system Cytochrome P450 2C9 (Homo sapiens) for COCC(=O)N1CCC2(CC1)CN(Cc1cc(C(F)(F)F)cc(C(F)(F)F)c1)C2
12.6 µM (inconclusive)

Lab request: please report AC50 under test system Cytochrome P450 2C9 (Homo sapiens) for CCOc1cc(/C=N/NC(=O)c2cc(C)[nH]n2)ccc1OC(=O)c1ccc([N+](=O)[O-])cc1
1.78 µM (inconclusive)

Lab request: please report AC50 under test system Cytochrome P450 2C9 (Homo sapiens) for O=c1[nH]c(=O)n(Cc2ccco2)c2c1C(C(F)(F)F)(C(F)(F)F)NC(CCC1CCCCC1)=N2
2.82 µM (inconclusive)

----------
# systemName: Polyadenylate-binding protein 1 (Homo sapiens)
# Sequence (P11940 whole entry, the tested form may be a part): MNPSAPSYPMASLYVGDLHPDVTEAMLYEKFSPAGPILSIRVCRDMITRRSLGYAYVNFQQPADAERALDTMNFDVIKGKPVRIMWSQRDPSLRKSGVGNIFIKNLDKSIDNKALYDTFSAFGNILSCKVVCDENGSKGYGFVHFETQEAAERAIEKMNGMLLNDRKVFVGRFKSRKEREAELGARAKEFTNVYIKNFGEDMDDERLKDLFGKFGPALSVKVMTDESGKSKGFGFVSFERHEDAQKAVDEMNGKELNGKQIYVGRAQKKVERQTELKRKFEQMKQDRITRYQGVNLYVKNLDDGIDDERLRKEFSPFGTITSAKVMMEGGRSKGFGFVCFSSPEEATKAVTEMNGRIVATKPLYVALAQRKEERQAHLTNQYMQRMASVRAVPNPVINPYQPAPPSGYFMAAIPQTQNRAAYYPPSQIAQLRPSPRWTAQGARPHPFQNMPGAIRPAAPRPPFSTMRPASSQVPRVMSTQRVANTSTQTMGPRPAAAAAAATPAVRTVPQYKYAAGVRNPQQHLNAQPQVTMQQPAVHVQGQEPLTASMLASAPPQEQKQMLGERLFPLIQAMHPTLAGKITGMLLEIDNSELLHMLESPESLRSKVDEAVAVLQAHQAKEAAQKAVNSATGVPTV
# assayInfo: MLLE domain peptide-binding blockers, IC50 – biochemical, fluorescence polarization, FITC-PAM2 peptide, dose response (AID 602259)
# Assay type: functional
# testConditions: read-out: IC50_Mean
Calls of active or inactive are those of the source.
Let's look at some molecules and their measured IC50.

N#Cc1c(NC(=O)C2CC(c3ccccc3O)=NO2)sc2c1CCC2 (stereo not drawn)
> 66 µM (inactive)
COc1ccc(NC(=S)NC(=O)c2ccccc2)cn1
> 66 µM (inactive)

Shift focus to the following entry.
Lab request: please report IC50 under test system Polyadenylate-binding protein 1 (Homo sapiens) for O=C1C(Cl)=C(N2CCN(CCO)CC2)C(=O)c2c(O)ccc(O)c21
60.6 µM (inactive)

----------
# systemName: Calpain-2 catalytic subunit (Sus scrofa, UniProt P43367)
# Sequence (P43367 whole entry): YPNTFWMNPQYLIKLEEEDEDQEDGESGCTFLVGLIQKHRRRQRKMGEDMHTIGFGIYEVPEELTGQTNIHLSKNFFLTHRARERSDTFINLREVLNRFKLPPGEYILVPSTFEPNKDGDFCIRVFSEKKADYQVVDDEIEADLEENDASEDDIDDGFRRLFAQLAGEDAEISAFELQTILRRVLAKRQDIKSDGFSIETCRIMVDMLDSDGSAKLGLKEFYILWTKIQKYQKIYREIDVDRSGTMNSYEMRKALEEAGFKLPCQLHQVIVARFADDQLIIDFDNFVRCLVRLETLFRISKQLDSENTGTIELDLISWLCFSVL
# assayInfo: m-calpain protease blockers, concentration series – biochemical, fluorogenic peptide substrate, dose response (AID 1420)
# Assay type: functional
readout: IC50

Reference set (3 entries):
CNC(=S)N/N=C/C1=CCC2CC1C2(C)C (centres undefined)
> 50 µM (not active)
O=C(Oc1ccc(Cl)c2cccnc12)C12CC3CC(CC(C3)C1)C2
11.9 µM (not active)
Fc1ccc(Cn2nnnc2C(c2cccs2)N2CCCCCC2)cc1 (centres undefined)
7.88 µM (not active)

Shift focus to the following entry.
Name the reported IC50 value associated with the molecule C[C@@H](NC(=O)c1[nH]cnc1C(=O)N[C@@H](CCCCNC(=O)OC(C)(C)C)C(=O)OC(C)(C)C)c1ccccc1
8.84 µM (not active)
